# system: Heat shock protein HSP90 (Homo sapiens, UniProt P07900+P08238)
# assay-details: Inhibition of HSP90 by FP assay
# Type: protein assay
Cut-off 6 µM on IC50: below means Satisfied, at or above means Not satisfied.

Previously resolved entries follow.
[
  {
    "mol": "Oc1cc(O)c(-c2[nH]ncc2N2CCOCC2)cc1Cl",
    "qualitative-label": "Not satisfied"
  },
  {
    "mol": "Oc1cc(O)c(-c2[nH]ncc2N2CCN(CCc3ccccc3)CC2)cc1Cl",
    "qualitative-label": "Satisfied"
  },
  {
    "mol": "OCc1n[nH]c(-c2cc(Cl)c(O)cc2O)c1N1CCNCC1",
    "qualitative-label": "Not satisfied"
  },
  {
    "mol": "CS(=O)(=O)c1ccc(CN2CCN(c3cn[nH]c3-c3cc(Cl)c(O)cc3O)CC2)cc1",
    "qualitative-label": "Satisfied"
  },
  {
    "mol": "CS(=O)(=O)c1ccc(CN2CCN(c3c[nH]nc3-c3cc(Br)c(O)cc3O)CC2)cc1",
    "qualitative-label": "Satisfied"
  }
]

Q: Report whether reported IC50 is lower than 6 µM (strictly) for CCN1CCN(c2c[nH]nc2-c2cc(Cl)c(O)cc2O)CC1
Ans: Satisfied

Q: Report whether reported IC50 is lower than 6 µM (strictly) for Oc1cc(O)c(-c2[nH]ncc2N2CCNCC2)cc1-c1ccccc1
Ans: Not satisfied

Q: Report whether reported IC50 is lower than 6 µM (strictly) for NC(=O)CN1CCN(c2c[nH]nc2-c2cc(Cl)c(O)cc2O)CC1
Ans: Not satisfied

Q: Report whether reported IC50 is lower than 6 µM (strictly) for Cc1n[nH]c(-c2cc(Cl)c(O)cc2O)c1N1CCNCC1
Ans: Satisfied

Measured values drawn from ChEMBL document CHEMBL1147024 for this set.
